src = patent US10988477B2

In this section, each of the molecules is paired with its reported IC50.
target.of.assay: intracellular GCN2 (phosphorylation of the GCN2 substrate eIF2α) (Homo sapiens)
Sequence (Q9P2K8 whole entry): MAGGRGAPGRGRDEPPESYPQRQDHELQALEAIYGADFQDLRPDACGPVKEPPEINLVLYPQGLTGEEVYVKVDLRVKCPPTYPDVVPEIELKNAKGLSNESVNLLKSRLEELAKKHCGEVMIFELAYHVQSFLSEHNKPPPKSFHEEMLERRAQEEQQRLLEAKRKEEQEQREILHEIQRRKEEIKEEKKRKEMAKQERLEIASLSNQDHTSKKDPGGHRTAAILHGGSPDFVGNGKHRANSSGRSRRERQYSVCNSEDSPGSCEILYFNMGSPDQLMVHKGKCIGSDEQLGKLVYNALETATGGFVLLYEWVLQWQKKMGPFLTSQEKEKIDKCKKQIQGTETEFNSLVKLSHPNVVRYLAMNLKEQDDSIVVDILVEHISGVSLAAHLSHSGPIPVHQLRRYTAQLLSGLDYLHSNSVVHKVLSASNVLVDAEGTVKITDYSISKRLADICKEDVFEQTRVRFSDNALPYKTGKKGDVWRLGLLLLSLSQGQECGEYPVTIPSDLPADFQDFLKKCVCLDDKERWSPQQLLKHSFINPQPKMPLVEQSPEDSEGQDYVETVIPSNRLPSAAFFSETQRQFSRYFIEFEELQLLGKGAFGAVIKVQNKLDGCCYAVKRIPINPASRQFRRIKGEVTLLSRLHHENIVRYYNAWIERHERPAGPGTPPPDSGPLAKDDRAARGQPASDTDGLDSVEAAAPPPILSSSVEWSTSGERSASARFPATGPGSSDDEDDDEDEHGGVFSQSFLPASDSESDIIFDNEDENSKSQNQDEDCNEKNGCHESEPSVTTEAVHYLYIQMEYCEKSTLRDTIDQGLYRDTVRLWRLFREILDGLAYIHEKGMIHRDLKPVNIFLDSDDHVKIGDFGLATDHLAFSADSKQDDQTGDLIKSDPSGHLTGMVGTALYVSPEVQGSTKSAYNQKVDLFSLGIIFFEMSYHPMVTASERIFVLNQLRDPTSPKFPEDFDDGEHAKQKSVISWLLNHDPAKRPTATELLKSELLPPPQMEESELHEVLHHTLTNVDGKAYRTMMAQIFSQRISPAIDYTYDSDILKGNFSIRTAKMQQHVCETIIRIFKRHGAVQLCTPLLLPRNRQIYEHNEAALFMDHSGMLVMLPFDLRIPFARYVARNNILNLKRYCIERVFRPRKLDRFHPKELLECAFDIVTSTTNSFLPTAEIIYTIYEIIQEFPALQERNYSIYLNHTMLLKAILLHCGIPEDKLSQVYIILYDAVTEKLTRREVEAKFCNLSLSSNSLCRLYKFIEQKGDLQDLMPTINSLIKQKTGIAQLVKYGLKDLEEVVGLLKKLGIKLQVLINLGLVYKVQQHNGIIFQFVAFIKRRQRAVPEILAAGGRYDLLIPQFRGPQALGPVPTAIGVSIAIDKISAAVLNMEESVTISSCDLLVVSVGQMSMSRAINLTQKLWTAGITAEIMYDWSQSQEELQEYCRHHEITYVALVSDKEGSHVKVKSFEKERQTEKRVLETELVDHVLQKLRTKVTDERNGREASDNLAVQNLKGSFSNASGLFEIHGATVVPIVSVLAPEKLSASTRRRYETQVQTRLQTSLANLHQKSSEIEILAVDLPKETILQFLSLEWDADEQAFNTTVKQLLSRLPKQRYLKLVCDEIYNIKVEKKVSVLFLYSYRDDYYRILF
method.notes: GCN2 cellular inhibition assay (AlphaScreen SureFire P-eIF2α Ser51, borrelidin-treated U2OS cells)
Type: cell-based
conditions.used: compounds of Formula II; biomarker assay, phosphorylated eIF2α Ser51 in borrelidin-treated U2OS cells

Example results:
{"molecule": "CC1(NS(C)(=O)=O)CCCN(c2cc(-c3cnc4ccc(C(F)F)nn34)ncn2)C1 (centres unmarked) [II-412]", "IC50": "500 to 5000 nM"}
{"molecule": "CS(=O)(=O)NCC1CN(c2cc(-c3cnc4ccc(C(F)F)nn34)ncn2)CCC1(F)F (single isomer, unassigned) [II-1]", "IC50": "500 to 5000 nM"}
{"molecule": "N#CCC(=O)N1CCCC(c2cc(-c3cnc4ccc(C(F)F)nn34)ncn2)C1 (centres unmarked)", "IC50": "500 to 5000 nM"}
{"molecule": "FC(F)c1ccc2ncc(-c3cc(-c4cnn(C5CCOCC5)c4)ncn3)n2n1", "IC50": "500 to 5000 nM"}

Query :: Return IC50 (reported value) for this molecule: CS(=O)(=O)NCC1CC(O)CN(c2cc(-c3cnc4ccc(C(F)F)nn34)ccn2)C1 (centres unmarked) [II-40]
Result :: < 500 nM

Query :: Return IC50 (reported value) for this molecule: CC1CC(CNS(C)(=O)=O)CN(c2cc(-c3cnc4ccc(C(F)F)nn34)ncn2)C1 (centres unmarked) [II-397]
Result :: < 500 nM

Query :: Return IC50 (reported value) for this molecule: CC1(CNS(C)(=O)=O)CCCN(c2cc(-c3cnc4ccc(C(F)F)nn34)ccn2)C1 (centres unmarked)
Result :: 500 to 5000 nM

Query :: Return IC50 (reported value) for this molecule: "O=C1CN(c2cc(-c3cnc4ccc(C(F)F)nn34)ccn2)CC2(CC2)N1"
Result :: 500 to 5000 nM
